# assay-remarks: in vitro
# settings: human, Caco-2, pH 7.4, Papp A-B mean value
Where a name gives a salt, the structure may show the parent alone.
Reported Papp A→B at 90 min, 10 μM values for a set of molecules
Write it as a number; the unit ×10⁻⁶ cm/s goes unstated.

Recorded Papp A→B at 90 min, 10 μM of COCCc1ccc(OCC(O)CNC(C)C)cc1 (centres unmarked) [Metoprolol Tartrate] , please.
34.8

Recorded Papp A→B at 90 min, 10 μM of CC[C@H]1OC(=O)[C@H](C)[C@@H](O[C@H]2C[C@@](C)(OC)[C@@H](O)[C@H](C)O2)[C@H](C)[C@@H](O[C@@H]2O[C@H](C)C[C@H](N(C)C)[C@H]2O)[C@](C)(O)C[C@@H](C)C(=O)[C@H](C)[C@@H](O)[C@]1(C)O , please.
0.48

====

# assay-remarks: Pharmacokinetic (PK) experiment in rats by gavage
# Type: in vivo
# settings: rat, plasma, po, male SD rats, 20 mg/kg
Reported Tmax values for a set of molecules
Write it as a number; the unit h goes unstated.

Field: example entries. Status: answers known.
>>> meas_value("C=CC(=O)N1CCN(c2nc(=O)n(-c3c(C)ccnc3C(C)C)c3nc(-c4c(F)ccc5c4OCO5)c(Cl)cc23)[C@@H](C)C1 [Compound 97]")
1
>>> meas_value("C=CC(=O)N1CCN(c2nc(=O)n(-c3c(C)ccnc3C(C)C)c3nc(-c4c(O)cccc4F)c(F)cc23)[C@@H](C)C1 (atropisomer, axis not shown) [AMG510, reference compound]")
0.33
>>> meas_value("C=CC(=O)N1C[C@H](C)N(c2nc(=O)n(-c3c(C)ccnc3C(C)C)c3nc(-c4c(F)ccc5ccoc45)c(Cl)cc23)C[C@H]1C (single isomer, unassigned) [Compound 90-1]")
1.33

Recorded Tmax of C=CC(=O)N1CCN(c2nc(=O)n(-c3c(C)ccnc3C(C)C)c3nc(-c4c(F)c(F)cc5ccoc45)c(Cl)cc23)[C@@H](C)C1 [Compound 103] , please.
1

Recorded Tmax of C=CC(=O)N1CCN(c2nc(=O)n(-c3c(C)ccnc3C(C)C)c3nc(-c4c(F)ccc5ccoc45)c(Cl)cc23)[C@@H](C)C1 (single isomer, unassigned) [Compound 73-1] , please.
0.67

Recorded Tmax of C=CC(=O)N1CCN(c2nc(=O)n(-c3c(C)ccnc3C(C)C)c3nc(-c4c(F)ccc5ccoc45)c(F)cc23)[C@@H](C)C1 (single isomer, unassigned) [Compound 70-1] , please.
1

Recorded Tmax of C=CC(=O)N1CCN(c2nc(=O)n(-c3c(C)ccnc3C(C)C)c3nc(-c4c(F)cc(F)c5ccoc45)c(Cl)cc23)[C@@H](C)C1 [Compound 102] , please.
1

====

Reported AUC(0-inf) values for a set of molecules
# assay-remarks: Pharmacokinetic (PK) experiment in rats by gavage
# Assay type: in vivo
# settings: rat, plasma, po, male SD rats, 20 mg/kg
Write it as a number; the unit ng·h/mL goes unstated.

>>> meas_value("C=CC(=O)N1CCN(c2nc(=O)n(-c3c(C)ccnc3C(C)C)c3nc(-c4c(F)ccc5ccoc45)c(Cl)cc23)[C@@H](C)C1 (single isomer, unassigned) [Compound 73-1]")
4320
>>> meas_value("C=CC(=O)N1C[C@H](C)N(c2nc(=O)n(-c3c(C)ccnc3C(C)C)c3nc(-c4c(F)ccc5ccoc45)c(Cl)cc23)C[C@H]1C (single isomer, unassigned) [Compound 90-1]")
13800

Recorded AUC(0-inf) of C=CC(=O)N1CCN(c2nc(=O)n(-c3c(C)ccnc3C(C)C)c3nc(-c4c(O)cccc4F)c(F)cc23)[C@@H](C)C1 (atropisomer, axis not shown) [AMG510, reference compound] , please.
3430

====

Reported Papp B→A at 90 min, 10 μM values for a set of molecules
# assay-remarks: in vitro
# settings: human, Caco-2, pH 7.4, Papp B-A Sample_01
Counter-ions that a name gives are not always drawn.
Write it as a number; the unit ×10⁻⁶ cm/s goes unstated.

>>> meas_value("CC[C@H]1OC(=O)[C@H](C)[C@@H](O[C@H]2C[C@@](C)(OC)[C@@H](O)[C@H](C)O2)[C@H](C)[C@@H](O[C@@H]2O[C@H](C)C[C@H](N(C)C)[C@H]2O)[C@](C)(O)C[C@@H](C)C(=O)[C@H](C)[C@@H](O)[C@]1(C)O [Erythromycin]")
13.8

Alright, here's another molecule for you.
Recorded Papp B→A at 90 min, 10 μM of COCCc1ccc(OCC(O)CNC(C)C)cc1 (centres unmarked) [Metoprolol Tartrate] , please.
29.4

====

Reported Papp A→B at 90 min, 10 μM values for a set of compounds
# assay-remarks: Caco-2 cell transmembrane transport experiment
# settings: human, Caco-2, pH 7.4, Papp A-B mean value, 10 μM, pH 7.4, 37° C., 90 min, apical to basolateral
Write it as a number; the unit ×10⁻⁶ cm/s goes unstated.

Field: example entries. Status: answers known.
>>> meas_value("C=CC(=O)N1CCN(c2nc(=O)n(-c3c(C)ccnc3C(C)C)c3nc(-c4c(F)ccc5ccoc45)c(Cl)cc23)[C@@H](C)C1 (single isomer, unassigned)")
18.4
>>> meas_value("C=CC(=O)N1CCN(c2nc(=O)n(-c3c(C)ccnc3C(C)C)c3nc(-c4c(O)cccc4F)c(F)cc23)[C@@H](C)C1 (atropisomer, axis not shown) [AMG510, reference compound]")
5.39
>>> meas_value("C=CC(=O)N1C[C@H](C)N(c2nc(=O)n(-c3c(C)ccnc3C(C)C)c3nc(-c4c(F)ccc5ccoc45)c(Cl)cc23)C[C@H]1C (single isomer, unassigned)")
20.2

Recorded Papp A→B at 90 min, 10 μM of C=CC(=O)N1C[C@H](C)N(c2nc(=O)n(-c3c(C)ccnc3C(C)C)c3nc(-c4c(F)c(F)cc5ccoc45)c(Cl)cc23)C[C@H]1C (single isomer, unassigned) , please.
10.8

Recorded Papp A→B at 90 min, 10 μM of C=CC(=O)N1CCN(c2nc(=O)n(-c3c(C)ccnc3C(C)C)c3nc(-c4c(F)c(F)cc5ccoc45)c(Cl)cc23)[C@@H](C)C1 (single isomer, unassigned) , please.
11.4

Recorded Papp A→B at 90 min, 10 μM of C=CC(=O)N1CCN(c2nc(=O)n(-c3c(C)ccnc3C(C)C)c3nc(-c4c(F)ccc5ccoc45)c(F)cc23)[C@@H](C)C1 (single isomer, unassigned) , please.
18.9

====

# Tested on: H358 (KRAS G12C)
# assay-remarks: Tumor cell proliferation inhibition assay (CellTiter-Glo), H358
# Assay type: cell-based, Human
# settings: Homo sapiens, NCI-H358, 72 h, 10% fetal bovine serum
endpoint-name: IC50

Field: example entries. Status: answers known.
>>> meas_value("C=CC(=O)N1CCN(c2nc(=O)n(-c3c(C(C)C)ncnc3C(C)C)c3nc(-c4c(F)ccc5ccoc45)c(Cl)cc23)[C@@H](C)C1 [Compound 118]")
"< 10 nM"
>>> meas_value("C=CC(=O)N1CCN(c2nc(=O)n(-c3c(C(C)C)ccnc3C(C)C)c3nc(-c4c(F)ccc5ccoc45)c(Cl)cc23)[C@@H](C)C1 [Compound 122]")
"< 10 nM"

Recorded IC50 of C=CC(=O)N1CCN(c2nc(=O)n(-c3c(C)ccnc3C(C)C)c3nc(-c4c(F)c(F)cc5ccoc45)c(Cl)cc23)[C@@H](C)C1 (single isomer, unassigned) [Compound 103-1] , please.
< 10 nM

Recorded IC50 of C=CC(=O)N1CCN(c2nc(=O)n(-c3c(C)ccnc3C(C)C)c3nc(-c4c(F)ccc5ccoc45)c(Cl)cc23)[C@@H](C)C1 [Compound 73] , please.
< 10 nM

Recorded IC50 of C=CC(=O)N1CCN(c2nc(=O)n(-c3c(C)ccnc3C(C)C)c3nc(-c4c(F)ccc5c4OCC5)c(F)cc23)[C@@H](C)C1 [Compound 79] , please.
10 to 50 nM

Recorded IC50 of COC/C=C/C(=O)N1CCN(c2nc(=O)n(-c3c(C)ccnc3C(C)C)c3nc(-c4cc5ccoc5cc4F)c(F)cc23)[C@@H](C)C1 [Compound 115] , please.
> 500 nM

Recorded IC50 of C=CC(=O)N1CCN(c2nc(=O)n(-c3c(C)ccnc3C(C)C)c3nc(-c4c(F)ccc5ccoc45)c(F)cc23)C[C@@H]1CC#N (atropisomer, axis not shown; (M)) [Compound 100-1] , please.
100 to 500 nM

====

Reported Papp B→A at 90 min, 10 μM values for a set of compounds
# assay-remarks: Caco-2 cell transmembrane transport experiment
# settings: human, Caco-2, pH 7.4, Papp B-A Sample_01, 10 μM, pH 7.4, 37° C., 90 min, basolateral to apical
Answer with the number, then the unit.

>>> meas_value("C=CC(=O)N1CCN(c2nc(=O)n(-c3c(C)ccnc3C(C)C)c3nc(-c4c(F)c(F)cc5ccoc45)c(Cl)cc23)[C@@H](C)C1 (single isomer, unassigned)")
"19.7 ×10⁻⁶ cm/s"
>>> meas_value("C=CC(=O)N1CCN(c2nc(=O)n(-c3c(C)ccnc3C(C)C)c3nc(-c4c(F)ccc5ccoc45)c(F)cc23)[C@@H](C)C1 (single isomer, unassigned)")
"21.1 ×10⁻⁶ cm/s"
>>> meas_value("C=CC(=O)N1CCN(c2nc(=O)n(-c3c(C)ccnc3C(C)C)c3nc(-c4c(F)ccc5ccoc45)c(Cl)cc23)[C@@H](C)C1 (single isomer, unassigned)")
"17.2 ×10⁻⁶ cm/s"
>>> meas_value("C=CC(=O)N1C[C@H](C)N(c2nc(=O)n(-c3c(C)ccnc3C(C)C)c3nc(-c4c(F)c(F)cc5ccoc45)c(Cl)cc23)C[C@H]1C (single isomer, unassigned)")
"22.1 ×10⁻⁶ cm/s"
>>> meas_value("C=CC(=O)N1CCN(c2nc(=O)n(-c3c(C)ccnc3C(C)C)c3nc(-c4c(O)cccc4F)c(F)cc23)[C@@H](C)C1 (atropisomer, axis not shown) [AMG510, reference compound]")
"27.9 ×10⁻⁶ cm/s"

Alright, here's another compound for you.
Recorded Papp B→A at 90 min, 10 μM of C=CC(=O)N1C[C@H](C)N(c2nc(=O)n(-c3c(C)ccnc3C(C)C)c3nc(-c4c(F)ccc5ccoc45)c(Cl)cc23)C[C@H]1C (single isomer, unassigned) , please.
18.6 ×10⁻⁶ cm/s
